Tested on: HL-60
Test: NCI tumour cell line growth inhibition, 48 h
Active and inactive are the calls of the source. Cut-off read from the data, not from the text of the source: active = GI50 up to about 1.1 µM and inactive = higher.
parameter measured: GI50

{"compound": "CC1(c2nc3ccccc3[nH]2)CCC(C(N)=O)C(C)(C)O1 (centres undefined)", "tested system": "HL-60", "GI50": "> 100 µM (inactive)"}
{"compound": "COCOCC[C@@H]1CC=CC(NC(=O)OCc2ccccc2)C1/C=C/C(=O)CCC1OCCO1 (some centres undefined)", "tested system": "HL-60", "GI50": "18.5 µM (inactive)"}

What does the data say about its GI50? Entry: `[O-][n+]1ccccc1S`
0.232 µM (active)

What does the data say about its GI50? Entry: `Cc1ccc(C(=O)N/N=C(\N=N\c2cccc([N+](=O)[O-])c2)c2ccc(N(CCC#N)CCC#N)cc2C)cc1`
12.9 µM (inactive)
